These measurements were taken from the supplement of paper PMC4862054.

Entries annotated with measured normalised response
# System: HCC1937
# assayProcedure: normalised response (% of control), CellTiter-Glo; higher = more viable cells (100 = DMSO, 0 = benzethonium chloride kill control)
# conditionDescription: incubation time: 72 h
Just the number in %, nothing appended.

>>> observedmeasurement("S=P(N1CC1)(N1CC1)N1CC1 [Thio-TEPA] (50000 nM)")
93
>>> observedmeasurement("NC(=O)c1ccc(I)c([N+](=O)[O-])c1 [Iniparib] (10000 nM)")
86.9
>>> observedmeasurement("COCC[n+]1c2c(n(Cc3cnccn3)c1C)C(=O)c1ccccc1C2=O [YM155] (10000 nM)")
0.28
>>> observedmeasurement("CC(C)C[C@@H](C(=O)N[C@H](C(=O)OC1CCCC1)c1ccccc1)[C@H](O)C(=O)NO [Tosedostat] (10000 nM)")
60.4
>>> observedmeasurement("COCC1(CO)C(=O)C2CCN1CC2 (configuration not stated) [Prima-1 Met] (10000 nM)")
101
>>> observedmeasurement("CCn1c(-c2nonc2N)nc2cnc(Oc3cccc(NC(=O)c4ccc(OCCN5CCOCC5)cc4)c3)cc21 (10000 nM)")
76.6

get_value(item= CNC(=O)c1ccc(N2C(=S)N(c3ccc(C#N)c(C(F)(F)F)c3)C(=O)C2(C)C)cc1F [Enzalutamide] (10000 nM) , readout=normalised response) returns 92.7

get_value(item= N#Cc1ccc(COC[C@H]2O[C@@H](n3c(NCc4ccc(Cl)c(Cl)c4)nc4c(N)ncnc43)[C@H](O)[C@@H]2O)cc1 (10000 nM) , readout=normalised response) returns 51.6

get_value(item= O=C(/C=C/c1cccc(S(=O)(=O)Nc2ccccc2)c1)NO [Belinostat] (10000 nM) , readout=normalised response) returns 20.5

get_value(item= O=C(Nc1ccncc1)C(=O)c1cn(Cc2ccc(Cl)cc2)c2ccccc12 [Indibulin] (10000 nM) , readout=normalised response) returns 69

get_value(item= CN(C)c1nc(N(C)C)nc(N(C)C)n1 [Altretamine] (10000 nM) , readout=normalised response) returns 100

get_value(item= O=C(Nc1cccnc1)N1CCC(Cc2cccc(Oc3ccc(C(F)(F)F)cn3)c2)CC1 [PF-3845] (10000 nM) , readout=normalised response) returns 75.3
